All values here come from ChEMBL document CHEMBL1201862.

Please go through the items and note down their GI50.
tested on: UACC-257; assay: NCI tumour cell line growth inhibition, 48 h
Active and inactive are the calls of the source. Rule as the data show it: active = GI50 up to about 1.1 µM and inactive = higher.

O=C1OC(C2(O)OC(=O)c3ccccc32)c2ccccc21 (stereo unspecified)	> 100 µM (inactive)

Give GI50 for each listed item.
1. COc1nc2cccc(C(O)c3ccccc3)c2nc1-c1ccccc1 (stereo unspecified)
2. NC(CC1=CCC=CC1)C(=O)O (stereo unspecified)
3. OCC(O)COc1c(Cl)ccc(Cl)c1Cl (stereo unspecified)
4. COc1cc2c(c(OC)c1O)-c1ccc(SC)c(=O)cc1C(NC(C)=O)CC2 (stereo unspecified)

Solution:
["5.89 µM (inactive)", "> 100 µM (inactive)", "> 100 µM (inactive)", "2.24 µM (inactive)"]

Exercise: Given the entry FC(F)(F)c1cccc(/C=N/C23CC4CC(CC(C4)C2)C3)c1 , what GI50 was observed with UACC-257?
Solution: > 100 µM (inactive)
